Provide the recorded activation for the entries that follow.
Biological target: Vasopressin V1a receptor (Homo sapiens) (UniProt P37288)
Sequence (P37288 whole entry, looked up): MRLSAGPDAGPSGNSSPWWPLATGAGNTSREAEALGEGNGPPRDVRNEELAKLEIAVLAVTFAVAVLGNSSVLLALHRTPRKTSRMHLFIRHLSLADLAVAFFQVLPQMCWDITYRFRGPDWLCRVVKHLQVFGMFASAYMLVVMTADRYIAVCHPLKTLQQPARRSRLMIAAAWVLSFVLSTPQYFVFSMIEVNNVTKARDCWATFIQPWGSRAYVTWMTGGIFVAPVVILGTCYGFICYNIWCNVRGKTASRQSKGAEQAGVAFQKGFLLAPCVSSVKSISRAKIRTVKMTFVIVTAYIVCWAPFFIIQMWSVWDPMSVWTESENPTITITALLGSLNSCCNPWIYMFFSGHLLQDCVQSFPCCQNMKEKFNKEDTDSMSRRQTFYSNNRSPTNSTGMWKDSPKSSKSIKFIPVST
Assay: V1a receptor agonists, calcium signal, confirmation, Fluo-8 calcium fluorescence, CHO-V1R cells (AID 434964);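 further: peak over basal fluorescence ratio during a 100 s FLIPR read; 0% = DMSO only wells and 100% = 3 nM vasopressin wells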
Details: agonist, at 3 µM, hits give high values
The other results are listed elsewhere or left out.
Give bare numbers, in %.

// for each molecule below, give its activation
1. CC1(C)S[C@@H]2[C@H](N=CN3CCCCCC3)C(=O)N2[C@H]1C(=O)O
2. Cc1cc(C)c(/C=C2\C(=O)Nc3ccccc32)[nH]1
3. O=C(CN1CCN(c2cccc(Cl)c2)CC1)Nc1ccc(S(=O)(=O)N2CCOCC2)cc1
4. Fc1cccc(Cl)c1COc1ccc(-c2nnco2)cc1

1: 0.2; 2: 40.5; 3: 3.06; 4: 2.1

// for each molecule below, give its activation
1. CCN(CC)c1ccc(/C=N/NC(=O)c2cnccn2)c(O)c1
2. CCN(CC)c1ccc2cc(C(N)=O)/c(=N\NC(=O)c3ccncc3)oc2c1

[10.5, 21.7]
